assay_overview: NCI Yeast Anticancer Drug Screen. Data for the mec2-1 strain (AID 157)
test_settings: S. cerevisiae mec2-1 strain, at 50.0 µM, hits give high values
This is part of a sample that, as a whole, favours compounds with a hit. Of some 79,000 tested, about 15% had one in any assay.
Listed compounds paired with reported growth inhibition
measurement_kind: growth inhibition (%)

* CC1OC(Cc2ccccc2)OC1C (stereo not drawn) | 13.8
* CC(=O)CC1CCCCCC1 | 4.3
* CC1=C(C(=O)Nc2ccc(Cl)c(C(=O)OC(C)C)c2)SCCO1 | 7.35
* O=C1CCCC/C1=C/c1ccccc1 | 18.9
* CCOC(=O)CN/N=C(\N)CSS(=O)(=O)O | -17.4
* NC(=O)[C@H]1CC2CCC1C2 (stereo partly drawn) | -1.75
* CNC(=O)c1ccccc1S(=O)Cc1ccc(Br)cc1 (stereo not drawn) | -30.2
* OCC(O)CS (stereo not drawn) | 0.1
* CCOC(=O)c1ccc2c3c(ccc([N+](=O)[O-])c13)CC2 | -6.25
* CCOC(=O)C(C)(NC(=O)c1ccc(NCc2ccc3nc(NC(=O)c4ccccc4)nc(NC(=O)c4ccccc4)c3c2)cc1)C(=O)OCC | -24
* Cc1noc(NC2=CC(=O)C(=O)c3ccccc32)c1C | 8.45
* CC(=NCCN=C(C)c1ccccc1O)c1ccccc1O.[Cu] | -8.05
* COc1ccc(C(CC(=O)O)CC(=O)O)cc1 | 12.3
* Cc1cccc(Nc2c(C(=O)O)cnc3cc4c(cc23)OCO4)c1 | -4.85
* Oc1c(CNCc2ccccc2)cc(CNCc2ccccc2)c(O)c1CNCc1ccccc1 | 8.85
* c1ccc(C2=C(c3ccccc3)C2c2ccccc2)cc1 | -8.95
* CN1C(=O)c2ccccc2N(C)C(=O)c2ccccc21 | -15.1
* O=C(O)CNc1ccc([N+](=O)[O-])cc1C(=O)O | -1

====

assay_overview: NCI Yeast Anticancer Drug Screen. Data for the sgs1 mgt1 strain (AID 161);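 also: 0% = growth of cultures given vehicle only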
test_settings: S. cerevisiae sgs1 mgt1 strain, at 50.0 µM, hits give high values
The panel holds about 79,000 compounds, 15% with a hit somewhere; the sample as a whole holds those more often. Where a SMILES comes first, the peptide text is derived from it. The star is where a group is joined. Cbz = O=C(OCc1ccccc1)*; NHNH2 = NN*
measurement_kind: growth inhibition (%)

- CCCCC(O)(CCCC)C(C)(C)C: 0.6
- CC1(C)C2C/C(=N/O)C(=O)C1C2 (centres undefined): 8.8
- COc1ccccc1NC(=O)C(C#N)=C(SC)SC: 0.1
- Nc1c(Cl)cnn2nnnc12: -15.6
- CC(C)(C)OC(=O)CC(NC(=O)OC(C)(C)C)C(=O)N[C@@H]1CCCC[C@H]1C(=O)OCc1ccccc1 (some centres undefined): 9.55
- CCCCCCCCCCC1OCC(CC)([N+](=O)[O-])CO1 (centres undefined): 18.3
- COC(=O)C(=C(C)C)S(=O)c1ccccc1 (centres undefined): -3.55
- O=CCCn1[nH]c(=O)ccc1=O: 15.9
- O=C(Cc1ccccc1)NN1C(=O)/C(=C\c2ccc(O)cc2)SC1=Nc1ccccc1: 28.9
- COC(=O)CC(NC(=O)OCc1ccccc1)C(=O)NC(CC(=O)OC)C(=O)NC(CC(=O)OC)C(=O)NC(CC(=O)OC)C(=O)NC(CC(=O)OC)C(=O)NC(CC(=O)OC)C(=O)NN (centres undefined) (Cbz-D(OMe)D(OMe)D(OMe)D(OMe)D(OMe)D(OMe)-NHNH2; configuration not given here): -24.6
- Cn1c(=O)n(CCn2c(=O)n(C)c3ccccc32)c2ccccc21: -3.15
- Cc1ccc(S(=O)(=O)C(CCC(=O)c2ccccc2)(CCC(=O)c2ccccc2)[N+](=O)[O-])cc1: -10
- CC(=O)/C(N=Nc1ccccc1SCCC#N)=C(\C)O: -8.1
- O=S(=O)(c1ccc(Cl)cc1)N1CCN(S(=O)(=O)c2ccc(Cl)cc2)C1: -14.3

====

Listed compounds paired with reported growth inhibition
assay_overview: NCI Yeast Anticancer Drug Screen. Data for the bub3 strain (AID 167)
test_settings: S. cerevisiae bub3 mutant strain, at 50.0 µM, hits give high values
The panel holds about 79,000 compounds, 15% with a hit somewhere; the sample as a whole holds those more often.
measurement_kind: growth inhibition (%)

- O=c1oc2ccccc2c(O)c1C(c1ccc2c(c1)OCO2)N1CCCC1 (centres undefined): 8.35
- CCN(CC)CCC(=O)O[C@H]1CC[C@H](CC(C)[C@H]2CC(=O)C(C)C=C(C)[C@H](OC(=O)CCN(CC)CC)C(OC)C(=O)[C@@H](C)CC(C)/C=C/C=C/C=C(C)C(OC)CC3CC[C@H](C)[C@](O)(O3)C(=O)C(=O)N3CCCCC3C(=O)O2)CC1OC (some centres undefined): 91.5
- Cn1cnc([N+](=O)[O-])c1SCC(=O)O: -17.9
- CC1OC(n2ccc3ccc([N+](=O)[O-])cc32)C(O)C(O)C1O (centres undefined): -27.8
- O=CNC1(c2ccccc2)CCCCC1: 4.6
- CN(C)c1ccc(/C=N/N(Cc2ccccc2)c2ccccc2)cc1: 11.3
- CC1(C)CC[C@]2(C(=O)O)CC[C@]3(C)C(=CC[C@@H]4[C@@]5(C)CC[C@@H]6OC(C)(C)OC[C@@]6(C)[C@@H]5CC[C@]43C)[C@H]2C1: -8.65
- CCOC(=O)/C(=C/c1ccc(N(C)C)cc1)N(CC)CC: 7.25
- C/C(=N\Nc1ccc2ccccc2n1)c1ccccc1O: -66.5
- O=C(OCc1ccccc1)C1(O)CCCCC1: -5
- CC(C)([NH-])C[NH-].O=C(O)CCO.[Pt+2]: 8.65
- CCOC(=O)N1OC2C=CC1CC2 (centres undefined): 3.45
- CC(C)CCCC(C)C1CCC2(C)C3=C(CCC12C)C1(C)CCC(O)C(C)(C)C1CC3=O (centres undefined): 2.1
- COc1ccc(/C=C/C2=CC(=O)CC(c3ccc(OC)c(OC)c3)C2)cc1OC (centres undefined): 31.2

====

Listed molecules paired with reported growth inhibition
assay_overview: NCI Yeast Anticancer Drug Screen. Data for the mec2-1 strain (AID 157)
test_settings: S. cerevisiae mec2-1 strain, at 50.0 µM, hits give high values
About 79,000 compounds went through this panel and 15% of them were active in at least one assay; those are over-represented in the sample as a whole.
measurement_kind: growth inhibition (%)

* O=C(Nc1ccc([N+](=O)[O-])c2c1C(=O)c1ccccc1C2=O)c1ccccc1 | -12.1
* CCOC(=O)C1(F)S(=O)(=O)OCCOS1(=O)=O | -9.95
* CNC(=O)C(C)Oc1ccc(OCC2CCCCC2)cc1 (centres undefined) | -44.2
* CCOC(=O)Cn1c2ccccc2c(=O)c2cc(C)c(C)c(C#N)c21 | -12.9
* COc1ccc(C2C3=C(CC(C)(C)CC3=O)Oc3cc4c(cc32)OCO4)cc1 (centres undefined) | -0.05
* COc1ccc2c(=O)cc[nH]c2c1OC | -16.4
* O=C(C#CP(=O)(O)c1ccccc1)c1ccccc1 | 16.4
* COC(=O)c1c(OC)cc2cc3c(c(O)c2c1C)C(=O)C1(O)C(=O)C=C(OC)C(OC(=O)CC(C)N)=C1C3=O (centres undefined) | 1.05
* C[C@H](NC(=O)n1c2ccccc2c2ccccc21)C(=O)O | 5.2
* CCCCCCC(=O)CC1(C(=O)OC)NC(=S)NC(=O)C1C#N (centres undefined) | 6.85
* CC(=O)Cc1ccc2[nH]c(C)cc(=O)c2c1 | 5.25
* NS(=O)(=O)c1ccc(NC(=O)c2cccn3c(=O)c4ccccc4nc23)cc1 | 9.45
* COc1ccc(C(=O)Nc2ccccc2)cc1 | 8.7
* C=CCc1ccc(OC(=O)Nc2cccc(OC)c2)c(OC)c1 | 86.8
* CC/C=C\CCOC(=O)C1OC1c1ccccc1 (centres undefined) | 17.3
* O=C(O)C#Cc1ccccc1 | -27.9
* CCOC(=O)c1[nH]n(-c2ccccc2)c(=O)c1C=NC(=S)c1cccnc1 | 2.1
* CC(=O)Oc1cc2c(cc1OC(C)=O)C(=O)c1cc3c(cc1C2=O)OCO3 | -10.9
* Nc1ccccc1SC1CC(=O)N(c2cccc(Cl)c2)C1=O (centres undefined) | -25.4
* CCCCCC(=O)N1CCOCC1 | 10.8
* OCC1CSCC1CO (centres undefined) | 12.8
* CCCCCCCCCCCCCCCC(=O)OCC(=O)O | -16.4
* COc1cc2cc3c4cc(OC)c(OC)cc4cc[n+]3c(CCC(=O)O)c2cc1OC (tested in a mixture with another compound) | -2.75
* CC12CCC(/C(=C/N(O)/C=C3\C(=O)C4(C)CCC3C4(C)C)C1=O)C2(C)C | -11.8

====

assay_overview: NCI Yeast Anticancer Drug Screen. Data for the mlh1 rad18 strain (AID 175)
test_settings: S. cerevisiae mlh1 rad18 strain growth inhibition; at 50.0 µM
Compounds without any hit were thinned out: in the full panel of roughly 79,000, 15% have a hit. Activity calls are given as the source filed them. Cut-off read from the data, not from the text of the source: active = growth inhibition above about 70%; inactive = the rest.
Labels: 1 (yes) = active, 0 (no) = inactive

- CC[C@H](/C=C/[C@@H](C)[C@H]1CC[C@H]2[C@@H]3CC[C@@H]4CC(=O)CC[C@]4(C)[C@H]3CC[C@]12C)C(C)C: 0 (no)
- Cn1cnc([N+](=O)[O-])c1Sc1ccncc1S(N)(=O)=O: 0 (no)
- O=C(O)C(C(=O)O)C(c1cccc([N+](=O)[O-])c1)C(c1ccccc1)[N+](=O)[O-] (stereo not drawn): 0 (no)
- CCCC12C=C(OC)C(=O)C=C1OC(c1cc(OC)c(OC)c(OC)c1)C2C (stereo not drawn): 0 (no)
- CNC(=O)n1cnc2ccccc21: 0 (no)
- O=CNC(NC=O)c1ccccc1[N+](=O)[O-]: 0 (no)
- COc1ccc(/C=N/CCl)cc1: 0 (no)
- CCCCCC/C=C/CCCCCCCC(=O)O: 0 (no)
- COc1ccc(C2(CN(C)C)COc3cc(OC)c(OC)cc3C2=O)cc1OC (stereo not drawn): 0 (no)
- CNC(=O)CN(CC(=O)NC)C(=O)NC: 0 (no)
- CCCCCCCCCCCCCCCC(=O)O[C@@H]1[C@@H](C)[C@@]2(O)[C@@H](C=C(CO)C[C@]3(O)C(=O)C(C)=C[C@@H]23)[C@H]2[C@]1(OC(C)=O)[C@]2(C)CO: 0 (no)
- O=C1c2ccccc2-c2cc(Br)c(NC(=O)C3CCCCC3C(=O)O)cc21 (stereo not drawn): 0 (no)
- COC(=O)CCSCCC(=O)OC: 0 (no)
- CN1CNC(=O)c2n[nH]nc21: 0 (no)
- CCCCC1(C=O)NC(=O)N(C)C1=O (stereo not drawn): 0 (no)
- CCC(COC(=O)CC[C@@H](NC(=O)C(C)NC(=O)C(C)OC1C(O)C(CO)OC(OCc2ccccc2)C1NC(C)=O)C(N)=O)NC1c2ccccc2Nc2cccc([N+](=O)[O-])c21 (stereo partly drawn): 0 (no)
- O=[n+]1c2c(n([O-])c3cc(Cl)c(Cl)cc31)CCCC2: 0 (no)
- CCOc1ccccc1NC(=O)C(=O)C(c1ccccc1)S(=O)(=O)Cc1ccccc1 (stereo not drawn): 0 (no)
- CC(=O)Nc1ccc(S(=O)(=O)[N-]C2C(=O)c3ccccc3C(=O)C2[n+]2ccccc2)cc1 (stereo not drawn): 0 (no)
- O=C(O)c1cc(=O)[nH]c2ccccc12: 0 (no)
- CC1c2ccccc2-c2ccccc2N1C(=O)c1cccc(C(=O)N2c3ccccc3-c3ccccc3C2C)n1 (stereo not drawn): 0 (no)
- Cc1cc(C)nc(NS(=O)(=O)c2ccc(NC(=O)c3cccc4c(Nc5ccc(S(=O)(=O)N=C(N)N)cc5)c5ccc(Cl)cc5nc34)cc2)n1: 0 (no)
- C=C(CC(O)c1ccccc1)C(=O)Nc1ccccc1OC (stereo not drawn): 0 (no)
- SCCCCN1CCCCC1: 0 (no)
- CC(=O)C1(c2ccccc2)C(C)(C)C(C)(C)C(=O)C(C)(C)C1(C)C: 0 (no)
- CCOC(=O)c1nc2ccccc2nc1NCc1ccc(OC)cc1: 0 (no)
- O=NN(CCCl)C(=O)NC1c2cc(Cl)ccc2-c2c(Cl)cc(Cl)cc21 (stereo not drawn): 1 (yes)
- COc1ccc(C(c2cc(OC)c(OC)c(OC)c2)N2C(=O)CCC2C(=O)O)cc1 (stereo not drawn): 0 (no)
- CCOc1ccccc1N=Nc1c(C)nn(C(=S)SC)c1OCC: 0 (no)
- O=c1ccnc2ccc3n[nH][nH]c3c12: 0 (no)
- CCCCCC(=O)Oc1c(C(C)CC)cc([N+](=O)[O-])cc1[N+](=O)[O-] (stereo not drawn): 1 (yes)
- CC(=O)N(CCCc1ccccc1)C(C)(C)C: 0 (no)
- COC(=O)c1c2c(cc3c1CC1(Cc4cc5c(cc4C1)CCCC5)C3)CCCC2: 0 (no)

These entries and their values trace back to PubChem BioAssay (NCI).
